B1: PBXIP1 (parent)
chain: EKQKQPRWREGTKDSHDPLPSWAE

Variants of: B1
Assay: protein stability index of a GFP-peptide fusion (GPS, HEK-293T) (PSI 1-6); higher = more stable;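 also: lentivirally expressed fusions sorted by FACS into six bins by GFP to DsRed ratio, PSI derived from sequencing read proportions per bin multiplied by bin number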
Details: c terminus: a fixed tail appended
Mark -1 for protein stability index values under 2, and 1 for everything at or above.

variant-label | group
T12M | 1
W22K | 1
K4S | -1
P6C | -1
H16C | 1
W8I | 1

Request: Reported protein stability index at or above 2? "Q5K"
Result: 1

Request: Reported protein stability index at or above 2? "S15N"
Result: -1

Request: Reported protein stability index at or above 2? "K4G"
Result: -1

Request: Reported protein stability index at or above 2? "G11F"
Result: 1
